Reference for the values: patent US20150086555A1

- Target Entity: hemagglutinin (HA) of influenza A/Japan/305/57 (H2N2) on whole virions (Influenza A virus A/Japan/305/1957(H2N2), UniProt P03451 16-562)
- Assay Details: ELISA; BCC supernatant on coated inactivated whole virions
Quantity Name: ELISA virus binding (OD450)
Please provide the amount together with its unit, number first.

Binder: TCN-531 (5091_H13) (antibody, V domains shown) VH: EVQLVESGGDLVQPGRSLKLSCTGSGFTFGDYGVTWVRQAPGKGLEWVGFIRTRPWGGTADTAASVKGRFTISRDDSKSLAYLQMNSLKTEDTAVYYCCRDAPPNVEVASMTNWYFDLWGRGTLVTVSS VL: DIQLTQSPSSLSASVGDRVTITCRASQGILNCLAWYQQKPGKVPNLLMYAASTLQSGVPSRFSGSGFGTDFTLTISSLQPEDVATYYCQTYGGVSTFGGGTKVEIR
ELISA virus binding (OD450): 0.67 OD450
//
Binder: TCN-546 (5089_L08) (antibody, V domains shown) VH: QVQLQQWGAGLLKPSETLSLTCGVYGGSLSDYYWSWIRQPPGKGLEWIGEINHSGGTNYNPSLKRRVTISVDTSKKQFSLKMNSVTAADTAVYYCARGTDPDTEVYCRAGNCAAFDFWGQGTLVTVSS VL: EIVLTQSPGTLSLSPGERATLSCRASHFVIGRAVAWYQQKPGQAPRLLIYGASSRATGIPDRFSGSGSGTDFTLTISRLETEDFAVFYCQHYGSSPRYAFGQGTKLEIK
ELISA virus binding (OD450): 0.06 OD450
//
Binder: TCN-550 (5096_F06) (antibody, V domains shown) VH: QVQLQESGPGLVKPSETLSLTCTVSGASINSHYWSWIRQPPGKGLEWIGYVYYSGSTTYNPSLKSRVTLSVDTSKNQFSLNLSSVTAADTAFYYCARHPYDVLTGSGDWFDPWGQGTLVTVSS VL: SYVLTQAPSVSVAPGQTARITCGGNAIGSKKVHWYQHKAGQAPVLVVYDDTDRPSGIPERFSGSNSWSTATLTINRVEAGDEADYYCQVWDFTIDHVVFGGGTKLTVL
ELISA virus binding (OD450): 0.06 OD450
//
Binder: TCN-552 (5249_I23) (antibody, V domains shown) VH: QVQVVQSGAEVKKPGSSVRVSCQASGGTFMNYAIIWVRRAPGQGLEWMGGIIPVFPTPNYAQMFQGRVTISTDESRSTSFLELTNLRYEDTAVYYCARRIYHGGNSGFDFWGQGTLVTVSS VL: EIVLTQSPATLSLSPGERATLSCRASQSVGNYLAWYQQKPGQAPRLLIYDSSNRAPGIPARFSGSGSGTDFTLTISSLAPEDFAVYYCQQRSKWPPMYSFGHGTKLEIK
ELISA virus binding (OD450): 0.71 OD450

We next turn to a different binder, shown below.
Tell us which ELISA virus binding (OD450) value is on record for TCN-534 (5249_B02) (antibody, V domains shown) VH: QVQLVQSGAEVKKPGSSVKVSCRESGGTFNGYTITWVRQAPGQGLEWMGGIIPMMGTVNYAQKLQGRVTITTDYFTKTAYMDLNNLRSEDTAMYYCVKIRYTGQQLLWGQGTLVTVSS VL: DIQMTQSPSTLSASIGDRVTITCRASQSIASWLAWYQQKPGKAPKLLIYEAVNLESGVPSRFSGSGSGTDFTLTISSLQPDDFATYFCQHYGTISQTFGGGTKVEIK
2.56 OD450
